assay.target: endogenous renin from human plasma (Homo sapiens, UniProt P00797)
Construct: endogenous renin from human plasma; from tissue; host or cells: pooled human plasma (EDTA)
Sequence (P00797 67-406): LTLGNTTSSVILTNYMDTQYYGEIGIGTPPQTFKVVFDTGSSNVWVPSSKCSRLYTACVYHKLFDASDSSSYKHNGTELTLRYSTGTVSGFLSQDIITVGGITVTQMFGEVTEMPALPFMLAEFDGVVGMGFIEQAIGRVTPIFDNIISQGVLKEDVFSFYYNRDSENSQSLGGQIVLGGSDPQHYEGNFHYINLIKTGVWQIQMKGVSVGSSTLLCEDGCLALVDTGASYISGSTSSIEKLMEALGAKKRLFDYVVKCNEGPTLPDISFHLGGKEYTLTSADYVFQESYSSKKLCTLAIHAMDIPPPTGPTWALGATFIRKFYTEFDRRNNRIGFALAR
method.summary: In vitro test: inhibition of plasma renin activity (angiotensin I formation, radioimmunoassay)
Type: biochemical
measurement.conditions: plasma renin activity, pooled human plasma, 37° C., pH 5.6; test concentration not given
Starred links: 1 amine or outer side, 2 acyl side, 3 side chain; linkers in the order of their positions; H or OH if unused. Non-standard residues stand in square brackets, D forms with d. Residues, ends and D or L forms follow the SMILES beside them. *: point of attachment. X2 = NCC(C(=O)[*:2])C(O)[C@H](CC1CCCCC1)N[*:1]; X1 = CC(C)C[C@H](N[*:1])C(O)C(CN)C(=O)[*:2]; NHCH2(2-pyridyl) = c1ccc(CN*)nc1; Boc = CC(C)(C)OC(=O)*
Attribute: % Inhibition
Lab book: enter the figure in %, no units written.

Examples with their reported % Inhibition follow.
[[record]]
compound = "CC[C@H](C)[C@H](NC(=O)C1CN(Cc2ccccc2)OC1[C@H](Cc1ccccc1)NC(=O)[C@H](Cc1c[nH]cn1)NC(=O)[C@H](Cc1ccccc1)NC(=O)OC(C)(C)C)C(=O)OC (some centres unmarked) [Example 31]"
experimental_result = 31

[[record]]
compound = "CC[C@H](C)[C@H](NC(=O)C(CN)C(O)[C@H](CC1CCCCC1)NC(=O)[C@H](Cc1c[nH]cn1)NC(=O)[C@H](Cc1ccccc1)NC(=O)[C@@H]1CCCN1C(=O)OC(C)(C)C)C(=O)NCc1ccccn1 (some centres unmarked) [Example 85] (Boc-PFH[X2]I-{NHCH2(2-pyridyl)})"
experimental_result = 100

[[record]]
compound = "CC[C@H](C)[C@H](NC(=O)C(CN)C(O)[C@H](CC1CCCCC1)NC(=O)[C@H](Cc1c[nH]cn1)NC(=O)[C@H](Cc1ccccc1)NC(=O)OC(C)(C)C)C(=O)NCc1ccccn1 (some centres unmarked) [Example 84]"
experimental_result = 100

[[record]]
compound = "CC[C@H](C)[C@H](NC(=O)C(CN)C(O)[C@H](CC(C)C)NC(=O)[C@H](Cc1c[nH]cn1)NC(=O)[C@H](Cc1ccccc1)NC(=O)OC(C)(C)C)C(=O)OC (some centres unmarked) [Example 94]"
experimental_result = 100

[[record]]
compound = "CC[C@H](C)[C@H](NC(=O)C(CN)C(O)[C@H](Cc1ccccc1)NC(=O)[C@H](Cc1c[nH]cn1)NC(=O)[C@H](Cc1ccccc1)NC(=O)OC(C)(C)C)C(=O)OC (some centres unmarked) [Example 77]"
experimental_result = 96


Item under review: CC[C@H](C)[C@H](NC(=O)C(CN)C(O)[C@H](Cc1ccccc1)NC(=O)[C@H](Cc1c[nH]cn1)NC(=O)[C@H](Cc1ccccc1)NC(=O)OC(C)(C)C)C(=O)NCc1ccccn1 (some centres unmarked) [Example 79] . Reported % Inhibition?
95

For the compound CC[C@H](C)[C@H](NC(=O)C(CN)C(O)[C@H](CC1CCCCC1)NC(=O)[C@H](Cc1c[nH]cn1)NC(=O)[C@H](Cc1ccccc1)NC(=O)OC(C)(C)C)C(=O)OC (some centres unmarked) [Example 82] , what % Inhibition is on record?
89

Please look up its % Inhibition: CC(C)CNC(=O)C(CN)C(O)[C@H](CC1CCCCC1)NC(=O)[C@H](Cc1c[nH]cn1)NC(=O)[C@H](Cc1ccccc1)NC(=O)OC(C)(C)C (some centres unmarked) [Example 86]
92

# get_value(readout='% Inhibition', item= CC[C@H](C)[C@H](NC(=O)C1CN(Cc2ccccc2)OC1[C@H](CC1CCCCC1)NC(=O)[C@H](Cc1c[nH]cn1)NC(=O)[C@H](Cc1ccccc1)NC(=O)OC(C)(C)C)C(=O)OC (some centres unmarked) [Example 39] )
67

Name the reported % Inhibition value associated with the compound CC[C@H](C)[C@H](NC(=O)C(CN)C(O)[C@H](CC(C)C)NC(=O)[C@H](Cc1c[nH]cn1)NC(=O)[C@H](Cc1ccccc1)NC(=O)OC(C)(C)C)C(=O)NCc1ccccn1 (some centres unmarked) [Example 96]
100

Record request: % Inhibition value, item CC[C@H](C)[C@H](NC(=O)C(CN)C(O)[C@H](CC(C)C)NC(=O)[C@H](Cc1c[nH]cn1)NC(=O)[C@H](Cc1ccccc1)NC(=O)[C@@H]1CCCN1C(=O)OC(C)(C)C)C(=O)NCc1ccccn1 (some centres unmarked) [Example 97] (Boc-PFH[X1]I-{NHCH2(2-pyridyl)})
100
